System: BDF1 mice, colon carcinoma 38 sc, T/C %
protocol: NCI In Vivo Anticancer Drug Screen. Data for tumor model Colon Carcinoma 38 (subcutaneous) in B6D2F1 (BDF1) mice
condition.description: endpoint: median tumor weight (est.); dose: 50.0 mg/kg/injection; schedule: Q07DX003 (ip); vehicle: Klucel (hydroxypropylcellulose) (HPC); higher = larger tumour
Records with an inconclusive call do not appear.

smiles: ClCCCCCCCCCCc1ccccc1
T/C: 63 % of control
--
smiles: CNc1nc(NC)nc(NC)n1
T/C: 111 % of control
--
smiles: CCCCCC(=O)O[C@]1(C(C)=O)CC[C@H]2[C@@H]3CCC4=CC(=O)CC[C@]4(C)[C@H]3CC[C@@]21C
T/C: 62 % of control
--
smiles: C[C@]12C=CC(=O)C=C1CC[C@@H]1[C@@H]2C(=O)C[C@@]2(C)[C@H]1CC[C@]2(O)C(=O)CO
T/C: 100 % of control
